test system: FM-MEL-6; experiment: drug sensitivity score (DSS) (DSS (unitless, 0-50 scale)); higher = more sensitive (stronger viability inhibition); extreme values may be limits of the assay; conditions: 72 h; culture: 2D
Would you kindly list drug sensitivity score for each of these compounds?
I'd appreciate a reply containing only the number, no unit.

Please report the recorded drug sensitivity score for Nc1ccccc1NC(=O)c1ccc(CNC(=O)OCc2cccnc2)cc1 [Entinostat] . 8.2

Follow-up entry: O[C@H](C[C@H]1c2c(F)cccc2-c2cncn21)[C@H]1CC[C@H](O)CC1 [GDC-0919] 1.1

Follow-up entry: COc1cccc(OCCCN)c1-c1cc(Nc2cnc(C#N)cn2)n[nH]1 [Prexasertib] 26.6

Follow-up entry: CC[C@@H]1C(=O)N(C)c2cnc(Nc3ccc(C(=O)NC4CCN(C)CC4)cc3OC)nc2N1C1CCCC1 [BI 2536] 6.7

Follow-up entry: COCCNCc1ccc(-c2cc3nccc(Oc4ccc(NC(=S)NC(=O)Cc5ccc(F)cc5)cc4F)c3s2)nc1 [Glesatinib] 0

Follow-up entry: CC1CCC(n2c3cnccc3c3cnc(Nc4ccc5c(n4)CCN(C(=O)CO)C5)nc32)CC1 (stereo not drawn) [AMG-925] 0.7

Follow-up entry: CCS(=O)(=O)Nc1ccc(Oc2ccc(F)cc2F)c(-c2cn(C)c(=O)c3[nH]ccc23)c1 [Mivebresib] 15.8

Follow-up entry: COc1cc2nccc(Oc3ccc(NC(=O)C4(C(=O)Nc5ccc(F)cc5)CC4)cc3)c2cc1OC [Cabozantinib] 0.2

====

test system: Bowes; assay: drug sensitivity score (DSS) (DSS (unitless, 0-50 scale)); higher = more sensitive (stronger viability inhibition); extreme values may be limits of the assay; details: 72 h; culture: 2D
Classification field: enter YES for drug sensitivity score values not below 0.1, NO for values below it.

Hi, just wondering whether `OC[C@H]1O[C@@H](n2cnc3c2N=CNC[C@H]3O)C[C@@H]1O` shows drug sensitivity score of 0.1 or higher. NO

Follow-up entry: `CC[C@]12C=CCN3CC[C@@]4(c5cc([C@@]6(C(=O)OC)C[C@@H]7C[C@@H](C(C)(F)F)CN(Cc8c6[nH]c6ccccc86)C7)c(OC)cc5N(C)[C@H]4[C@@](O)(C(=O)OC)[C@@H]1OC(C)=O)[C@@H]32` YES

Follow-up entry: `CCNC(=O)c1noc(-c2cc(C(C)C)c(O)cc2O)c1-c1ccc(CN2CCOCC2)cc1` YES

Follow-up entry: `CC(C)C[C@H](NC(=O)[C@@H](COC(C)(C)C)NC(=O)[C@H](Cc1ccc(O)cc1)NC(=O)[C@H](CO)NC(=O)[C@H](Cc1c[nH]c2ccccc12)NC(=O)[C@H](Cc1cnc[nH]1)NC(=O)[C@@H]1CCC(=O)N1)C(=O)N[C@@H](CCCNC(=N)N)C(=O)N1CCC[C@H]1C(=O)NNC(N)=O` NO

Follow-up entry: `NC(=O)c1cccc(-c2cccc(OC(=O)NC3CCCCC3)c2)c1` NO

Follow-up entry: `Cc1cc2c(F)c(Oc3ncnn4cc(OC[C@@H](C)O)c(C)c34)ccc2[nH]1` NO

Follow-up entry: `CNC(=O)c1cccc(-c2ccc3c(N4CCOC[C@@H]4C)nc(N4CCOC[C@@H]4C)nc3n2)c1` YES

Follow-up entry: `Cn1ncc(Cl)c1-c1cc(C(=O)N[C@H](CN)Cc2cccc(F)c2)sc1Cl` NO

Follow-up entry: `CCNC(=O)CCC/C=C\C[C@@H]1[C@@H](/C=C/[C@@H](O)CCc2ccccc2)[C@H](O)C[C@@H]1O` NO

Follow-up entry: Cc1nc2cccc(N)c2c(=O)n1C1CCC(=O)NC1=O (centres undefined) NO

Follow-up entry: `CC[C@@H]1C(=O)OC[C@@H]1Cc1cncn1C` NO

Follow-up entry: `NS(=O)(=O)OC[C@@H]1C[C@@H](n2ccc3c(N[C@H]4CCc5ccccc54)ncnc32)C[C@@H]1O` YES

Follow-up entry: `Cc1cccc(-c2nn3c(c2-c2ccnc4ccc(C(N)=O)cc24)CCC3)n1` NO
